TARGET: Retinal dehydrogenase 2 (Homo sapiens) (UniProt O94788)
METHOD_SUMMARY: qHTS for Inhibitors of the Aldehyde Dehydrogenase Family (ALDH1A2) Confirmation screens (AID 2061314); further: nearly all actives have a fitted effect of over 65% in size; further: potency means the concentration at half of the fitted maximal effect
EXPERIMENTAL_CONDITIONS: ALDH1A2 enzyme inhibition qHTS confirmation; series mostly up to 45.9 µM
Records with an inconclusive call do not appear. The source made the active and inactive calls. The call rests on the fitted dose curve; in most records, active means well fitted inhibition curve with a large enough effect; inconclusive means small, poorly fitted or top-dose-only effect; inactive means no such curve, though single readings can be large or run the other way.
MEASURED_PROPERTY: Potency

Some entries whose results are on file:
{"COMPOUND": "CN1C(=O)c2cccn2CC1CNC(=O)c1cccc2nccnc12 (stereo unspecified)", "Potency": "inactive"}
{"COMPOUND": "N[C@@H]1CCN(c2cnc3c(O)ccc(C(=O)O)c3c2)C1", "Potency": "25.2 µM (active)"}
{"COMPOUND": "CN(CC1(CO)CC1)c1nccc(CCC(F)(F)F)n1", "Potency": "inactive"}
{"COMPOUND": "O=C(Nc1cccc(Br)c1)c1cc(-c2ccc3c(c2)OCCO3)on1", "Potency": "inactive"}

Record `O=C(Nc1nc(-c2ccccc2)cs1)c1ccncc1NS(=O)(=O)c1ccc2ccccc2c1` , field Potency: 7.12 µM (active)

Record `CN1CCN(c2ccc(Nc3nn4c(=O)c5ccccc5nc4s3)cc2)CC1` , field Potency: 14.2 µM (active)

---

METHOD_SUMMARY: BET inhibitor-based combinations targeting novel dependencies in MECOM-rearranged (r) AML: SET-2 cell line (AID 2202231); further: potency means the concentration at half of the fitted maximal effect; nearly all actives have a fitted effect of over 35% in size
EXPERIMENTAL_CONDITIONS: SET-2 AML cells viability, CellTiter-Glo luminescence, 48 h
Results filed as inconclusive are left out. Calls of active or inactive are those of the source. The call rests on the fitted dose curve; in most records, active means well fitted inhibition curve with a large enough effect; inconclusive means small, poorly fitted or top-dose-only effect; inactive means no such curve, though single readings can be large or run the other way.
Quick reference for Potency among some compounds

{"SMILES_ENTRY": "COc1cc(OC)c(/C=C/S(=O)(=O)Cc2ccc(OC)c(OP(=O)(O)O)c2)c(OC)c1", "Potency": "132 nM (active)"}
{"SMILES_ENTRY": "CCC[C@H](NC(=O)[C@@H]1[C@H]2CCC[C@H]2CN1C(=O)[C@@H](NC(=O)[C@@H](NC(=O)c1cnccn1)C1CCCCC1)C(C)(C)C)C(=O)C(=O)NC1CC1", "Potency": "263 nM (active)"}
{"SMILES_ENTRY": "CCCc1cc(C(=O)N[C@H](Cc2ccc(-c3cccc(OC(F)(F)F)c3)nc2)C(=O)N[C@@H]2CCNC2)sc1C", "Potency": "20900 nM (active)"}
{"SMILES_ENTRY": "C[C@@]12O[C@@H](C[C@]1(O)CO)n1c3ccccc3c3c4c(c5c6ccccc6n2c5c31)CNC4=O", "Potency": "417 nM (active)"}
{"SMILES_ENTRY": "C/C(=N\\NC(=S)N1CCC1)c1ccccn1", "Potency": "59 nM (active)"}
{"SMILES_ENTRY": "N#C/C(=C1/Nc2ccccc2S1)c1ccnc(OCc2ccc(CN3CCOCC3)cc2)n1", "Potency": "20900 nM (active)"}
{"SMILES_ENTRY": "CN(C(=O)CNC(=O)/C=C/c1cccc(Cl)c1)C1CCS(=O)(=O)CC1", "Potency": "662 nM (active)"}

Turning to the following compound.
Record `C=C1C(=CC=C2CCC[C@]3(C)[C@@H]([C@H](C)C=C[C@H](C)C(C)C)CC[C@@H]23)C[C@@H](O)C[C@@H]1O` , field Potency: 23500 nM (active)

---

METHOD_SUMMARY: BET inhibitor-based combinations targeting novel dependencies in MECOM-rearranged (r) AML: HNT-34 cell line (AID 2202234); further: nearly all actives have a fitted effect of over 35% in size
EXPERIMENTAL_CONDITIONS: HNT-34 AML viability, CellTiter-Glo luminescence, 48 h; series mostly up to 46 µM
Records with an inconclusive call do not appear. Active and inactive are the calls of the source. Calls come from the whole dose curve; as a rule, active = well fitted inhibition curve with a large enough effect; inconclusive = small, poorly fitted or top-dose-only effect; inactive = no such curve, though single readings can be large or run the other way.
Bench note: report the call from active, inactive

{"COMPOUND": "CC(C)c1ccc(Cn2ccc3c4c(N)nc(NC5CC5)nc4ccc32)cc1", "CLASS": "active"}
{"COMPOUND": "COc1ccc(Oc2cc(NCCC(F)(F)F)c3ncc(-c4ccc(C(=O)NC5CC5)c(C)c4)n3n2)c(F)c1F", "CLASS": "active"}
{"COMPOUND": "CC1(N)CCN(c2cccnc2NC(=O)c2nc(-c3ncccc3C(F)(F)F)cnc2N)CC1", "CLASS": "active"}

Query: recorded result category for `CCOc1ccc(Cc2cc([C@@H]3O[C@H](CO)[C@@H](O)[C@H](O)[C@H]3O)ccc2Cl)cc1` in this test inactive

Query: recorded result category for Cc1oc(=O)oc1CN1CCN(c2cc3c(cc2F)c(=O)c(C(=O)O)c2n3C(C)S2)CC1 (stereo not drawn) in this test inactive

---

TARGET: Retinaldehyde dehydrogenase 3 (Homo sapiens) (UniProt P47895)
METHOD_SUMMARY: qHTS for Inhibitors of the Aldehyde Dehydrogenase Family (ALDH1A3) Primary screen (AID 2061315)
EXPERIMENTAL_CONDITIONS: ALDH inhibition qHTS; series mostly up to 56 µM
Results filed as inconclusive are left out. Activity calls are given as the source filed them. Calls follow the shape of the dose curve; as a rule, active = well fitted inhibition curve with a large enough effect; inconclusive = small, poorly fitted or top-dose-only effect; inactive = no such curve, though single readings can be large or run the other way.
MEASURED_PROPERTY: activity change, negative = inhibition

Some entries whose results are on file:
{"MOLECULE": "COCCOC(=O)C1=C(C)NC2=C(C(=O)CC(c3ccccc3OC)C2)C1c1cccc(O)c1 (stereo not given)", "REPORTED_MEASUREMENT": "inactive"}
{"MOLECULE": "CC(=O)c1c(C)[nH]c(C(=O)Nc2ccc(OCCCN(C)C)c(S(=O)(=O)Nc3ccc(Br)cc3)c2)c1C", "REPORTED_MEASUREMENT": "inactive"}
{"MOLECULE": "O=C(O)c1ccc(-c2ccc3ncnc(NCCc4cnc[nH]4)c3c2)o1", "REPORTED_MEASUREMENT": "inactive"}
{"MOLECULE": "Cc1c(Cl)cccc1S(=O)(=O)Nc1nc(NCCc2ccccc2)nc2c1CN(Cc1ccccc1)CC2", "REPORTED_MEASUREMENT": "inactive"}

Turning to the following molecule.
Record `Cc1ccc(N[S+](=O)([O-])c2cc3c(cc2CCc2ccccc2)NC(=O)CO3)cc1C` , field activity change, negative = inhibition: inactive

---

TARGET: Retinal dehydrogenase 2 (Homo sapiens)
METHOD_SUMMARY: qHTS for Inhibitors of the Aldehyde Dehydrogenase Family (ALDH1A2) Confirmation screens (AID 2061314); further: nearly all actives have a fitted effect of over 65% in size
EXPERIMENTAL_CONDITIONS: ALDH1A2 enzyme inhibition qHTS confirmation; series mostly up to 45.9 µM
Results filed as inconclusive are left out. Active and inactive are the calls of the source. The call rests on the fitted dose curve; in most records, active means well fitted inhibition curve with a large enough effect; inconclusive means small, poorly fitted or top-dose-only effect; inactive means no such curve, though single readings can be large or run the other way.
Bench note: report the call from T = active, F = inactive

Reference set (3 entries):
{"COMPOUND": "O=[S+]([O-])(Nc1ccc(-c2nc3ccccc3[nH]2)cc1)c1ccc2c(c1)OCO2", "CLASS": "T"}
{"COMPOUND": "CCN(CC)c1nc2ccccc2nc1C(=O)Nc1ccc(C(C)=O)cc1", "CLASS": "F"}
{"COMPOUND": "O=C(c1n[nH]c2ccccc12)N1CCCC(Cc2noc(-c3cnccn3)n2)C1 (stereo unspecified)", "CLASS": "F"}

Query: recorded result category for `O=C(O)C1(Oc2ccc(Cl)cc2)CCN(c2cnccn2)CC1` in this test F

Query: recorded result category for `O=C(CSc1nc2ccccc2n1CCc1ccccc1)c1ccc(O)c(O)c1` in this test F

Query: recorded result category for `COC(=O)c1ccccc1NC(=O)CSc1nc(-c2ccccc2)cc(C(F)(F)F)n1` in this test F

Query: recorded result category for O=C(O)C1NCc2[nH]cnc2C1c1ccccc1 (stereo unspecified) in this test T

Query: recorded result category for `COc1ccc(C2=Nn3c(nnc3-c3ccccc3OC)SC2)cc1OC1CCCC1` in this test T

Query: recorded result category for `Cc1cc(-c2nnc3n2CCCCC3)c(C)n1-c1ccc(Cl)c(Cl)c1` in this test T

Query: recorded result category for `Oc1ccc(CNc2cc(C(F)(F)F)ccn2)c2cccnc12` in this test T

Query: recorded result category for `CC1(C)CCC(C)(C)c2cc3c(cc21)Sc1ccccc1N=C3c1ccc(C(=O)O)cc1` in this test F

Query: recorded result category for CCN(CC)C(=O)CC(c1ccc2c(c1)OCO2)c1c(O)cc(OC)cc1OC (stereo unspecified) in this test F

---

TARGET: Aldehyde dehydrogenase 1A1 (Homo sapiens) (UniProt P00352)
METHOD_SUMMARY: qHTS for Inhibitors of the Aldehyde Dehydrogenase Family (ALDH1A1) Confirmatory screens (AID 2061316); further: nearly all actives have a fitted effect of over 65% in size
EXPERIMENTAL_CONDITIONS: ALDH inhibition qHTS; series mostly up to 47.3 µM
Inconclusive results are not listed. Activity calls are given as the source filed them. The call rests on the fitted dose curve; in most records, active means well fitted inhibition curve with a large enough effect; inconclusive means small, poorly fitted or top-dose-only effect; inactive means no such curve, though single readings can be large or run the other way.
Bench note: report the call from T (active), F (inactive)

Reference set (8 entries):
{"COMPOUND": "CCOCCCNC(=O)Nc1cc(C(=O)NCc2ccc(C(C)C)cc2)ccc1N1CCCC1", "TARGET": "Aldehyde dehydrogenase 1A1 (Homo sapiens) (UniProt P00352)", "CLASS": "T"}
{"COMPOUND": "Cc1ccc(CN(C)c2ccc(N3CCN(C)CC3)cc2)cc1", "TARGET": "Aldehyde dehydrogenase 1A1 (Homo sapiens) (UniProt P00352)", "CLASS": "T"}
{"COMPOUND": "CC(=O)Nc1cccc(OCc2cccc(C3Nc4ccccc4C(=O)N3Cc3ccco3)c2)c1 (configuration not stated)", "TARGET": "Aldehyde dehydrogenase 1A1 (Homo sapiens) (UniProt P00352)", "CLASS": "T"}
{"COMPOUND": "Cc1csc(CNc2ncnc3ccc(-c4ccc(C(C)O)o4)cc23)n1 (configuration not stated)", "TARGET": "Aldehyde dehydrogenase 1A1 (Homo sapiens) (UniProt P00352)", "CLASS": "T"}
{"COMPOUND": "O=C(CN1C(=O)N/C(=C\\c2cn(-c3cccc(C(=O)O)c3)cn2)C1=O)Nc1ccccc1Cl", "TARGET": "Aldehyde dehydrogenase 1A1 (Homo sapiens) (UniProt P00352)", "CLASS": "F"}
{"COMPOUND": "O=C1c2ccccc2NC(c2ccc(-c3cccc(Cl)c3)o2)N1O (configuration not stated)", "TARGET": "Aldehyde dehydrogenase 1A1 (Homo sapiens) (UniProt P00352)", "CLASS": "T"}
{"COMPOUND": "NC(=O)C1CCN(c2nc(-c3ccccc3-c3ccccc3)cs2)CC1", "TARGET": "Aldehyde dehydrogenase 1A1 (Homo sapiens) (UniProt P00352)", "CLASS": "T"}
{"COMPOUND": "CC(=O)c1c(C)n(-c2cccc(C)c2)c2ccc(OC(=O)COc3ccccc3)cc12", "TARGET": "Aldehyde dehydrogenase 1A1 (Homo sapiens) (UniProt P00352)", "CLASS": "F"}

Query: recorded result category for COc1ccc(C2Nc3ccc(Cl)cc3C(=O)N2Cc2ccccc2)cc1COc1ccc(NC(C)=O)cc1 (configuration not stated) in this test T

Query: recorded result category for `O=S1(=O)N=C(Oc2ccc(Br)cc2)c2ccccc21` in this test T

Query: recorded result category for `CC(=O)N1CCN(c2ccc(NCc3ccco3)cc2)CC1` in this test T

Query: recorded result category for `CCOC(=O)c1c(C)n(-c2ccccc2)c2ccc(OC(=O)c3ccccc3)cc12` in this test F

Query: recorded result category for `O=S(=O)(NN1CCOCC1)c1ccc(Br)cc1` in this test T

Query: recorded result category for `OCc1ccc(-c2ccc3ncnc(NCCc4cnc[nH]4)c3c2)o1` in this test T

Query: recorded result category for `O=C(NCC#CCSc1nnc(-c2cccc3ccccc23)o1)c1cccs1` in this test T

Query: recorded result category for `CC(=O)Nc1sc2c(c1-c1ccc(N3CCN(C)CC3)cc1)CCNC2` in this test F

Query: recorded result category for `Nc1ccc(CNc2ccc([S+](=O)([O-])Nc3nccs3)cc2)c(O)c1` in this test T

Query: recorded result category for `Cc1ccc(CNc2ccc(N3CCNCC3)cc2)cc1` in this test T

Query: recorded result category for `O=C([C@H](Cc1ccc(O[S+](=O)([O-])c2ccccn2)cc1)N[S+](=O)([O-])c1cccc2cnccc12)N1CCN(c2ccccc2)CC1` in this test T
